Please provide measured T/C for the entries that follow.
Tested on: BDF1 mice, Adenocarcinoma 755 s.c., tumor weight T/C
Experiment: NCI In Vivo Anticancer Drug Screen. Data for tumor model Adenocarcinoma 755 (subcutaneous) in B6D2F1 (BDF1) mice
Conditions: endpoint: mean tumor weight; dose: 225.0 mg/kg/injection; schedule: Q01DX011 (ip); vehicle: methylcellulose (MC); higher = larger tumour

>  <molecule>
Cc1ccc(/C=N/Nc2nc3c(c(=O)n(C)c(=O)n3C)n2C)cc1

>  <T/C>
39 % of control

$$$$

Hello, I would appreciate it if you could give T/C for each entry below.
1. Cn1c(=O)c2c(nc(COCc3nc4c(c(=O)n(C)c(=O)n4C)n3C)n2C)n(C)c1=O
2. O=c1[nH]cnc2c1ncn2CCCl
3. NC(CS)C(=O)O (stereo not given) (tested in a mixture with another compound)
4. Cc1ccccc1-c1nc2c(N)nc(N)nc2nc1N

1: 33 % of control; 2: 120 % of control; 3: 31 % of control; 4: 82 % of control
